# credit: patent US20210380703A1

Listing of recorded optical density by entry.
- tgt: T1, human ACVR2A (human, UniProt P27037 20-135, limits assumed)
- T1 construct: coated antigen of the initial ELISA; also called activin receptor, type II A
- experiment: ELISA; note: test concentration or dose not given here
Write the number in OD without appending the unit.

{"binder": "373_A11 (antibody, V domains shown, Group III) VH: EVQLLESGGGLVQPGGSLRLSCAASGFTFSNYGMNWVRQAPGKGLEWVANINYNGGYTGYADSVKGRFTISRDNSKNTLYLQMNSLRAEDTAVYYCARGANWHDTALDYWGQGTLVTVSS VL: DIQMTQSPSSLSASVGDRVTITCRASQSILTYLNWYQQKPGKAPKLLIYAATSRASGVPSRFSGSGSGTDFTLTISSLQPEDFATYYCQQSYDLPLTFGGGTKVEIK", "optical density, OD": 3.76}
{"binder": "370_B03 (antibody, V domains shown, Group III) VH: EVQLLESGGGLVQPGGSLRLSCAASGFTFSSYSMNWVRQAPGKGLEWVANINYNGGYTGYADSVKGRFTISRDNSKNTLYLQMNSLRAEDTAVYYCARGANWHDTALDYWGQGTLVTVSS VL: DIQMTQSPSSLSASVGDRVTITCRASQSILSYLNWYQQKPGKAPKLVIYAATSRASGVPSRFSGSGSGTDFTLTISSLQPEDFATYYCQQSYNNPLTFGGGTKVEIK", "optical density, OD": 3.71}
{"binder": "367_B12 (antibody, V domains shown, Group III) VH: EVQLLESGGGLVQPGGSLRLSCAASGFTFSSYGMHWVRQAPGKGLEWVASINYNGGYKSYADSVKGRFTISRDNSKNTLYLQMNSLRAEDTAVYYCARGANWHDTHLDYWGQGTLVTVSS VL: DIQMTQSPSSLSASVGDRVTITCRASQSILSYVNWYQQKPGKAPKLVIYAATSLASGVPSRFSGSGSGTDFTLTISSLQPEDFATYYCQQSYDTPLTFGGGTKVEIK", "optical density, OD": 3.02}
{"binder": "375_H07 (antibody, V domains shown, Group III) VH: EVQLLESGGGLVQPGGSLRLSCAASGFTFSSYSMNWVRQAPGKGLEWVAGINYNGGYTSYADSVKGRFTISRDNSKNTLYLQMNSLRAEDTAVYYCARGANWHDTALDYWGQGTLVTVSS VL: DIQMTQSPSSLSASVGDRVTITCRASQSILSYLNWYQQKPGKAPKLLIYAATSLASGVPSRFSGSGSGTDFTLTISSLQPEDFATYYCQQSYSSPLTFGGGTKVEIK", "optical density, OD": 3.3}

Consider the additional binder presented here.
response.value for 367_D08 (antibody, V domains shown, Group III) VH: EVQLLESGGGLVQPGGSLRLSCAASGFTFSDYSMNWVRQAPGKGLEWVAGINYNGGYTSYADSVKGRFTISRDNSKNTLYLQMNSLRAEDTAVYYCARGANWHDTHLDYWGQGTLVTVSS VL: DIQMTQSPSSLSASVGDRVTITCRASQSILSYLNWYQQKPGKAPKLVIYAATSRHSGVPSRFSGSGSGTDFTLTISSLQPEDFATYYCQQSDDLPLTFGGGTKVEIK (field: optical density) = 2.18
